# Test system: IRE1-XBP1s (XBP1-RLuc splicing reporter in HEK293 T-REx cells)
# Protocol: IRE1-XBP1s activation assay (XBP1-RLuc splicing reporter, HEK293 T-REx cells, luminescence relative to thapsigargin)
# Assay type: cell-based
# Experimental Parameters: 18 h, compound 10 μM, HEK293 T-REx XBP1-RLuc reporter cells, relative to thapsigargin (Tg) 500 nM, read-out: Activity (IRE1-XBP1s activation, luminescence as % signal relative to thapsigargin, % Tg)
Listing: activation at 10 µM of selected compounds
Recorded Endpoint: activation at 10 µM

1) [2H]C([2H])([2H])c1ccc(OCCN(C)C(=O)Cn2cc(NC(=O)CCNc3ccnc(F)n3)cn2)cc1 [Compound 222] = > 50%
2) Cc1ccc(OCCN(C)C(=O)Cn2cc(NC(=O)CCNc3cnc(C)nc3)cn2)cc1 [Compound 212] = < 30%
3) Cc1ccc(OCCN(C)C(=O)Cn2cc(NC(=O)CCOc3c(C(C)C)ccnc3C)cn2)cc1 [Compound 15] = > 50%
4) Cc1ccc(OCCN(C)C(=O)Cn2cc(NC(=O)CCNc3ccnc(N)n3)cn2)cc1 [Compound 158] = < 30%
5) Cc1ccc(OCCN(C)C(=O)Cn2cc(NC(=O)CCOc3ccc(F)nc3C)cn2)cc1 [Compound 10] = 30 to 50%
6) Cc1ccc(OCCN(C)C(=O)Cn2cc(NC(=O)CCOc3cncnc3N)cn2)cc1 [Compound 117] = < 30%
7) Cc1ccc(OCCN(C)C(=O)Cn2cc(NC(=O)CCOc3cccnc3C(F)(F)F)cn2)cc1 [Compound 16] = 30 to 50%
8) Cc1ccc(OCCN(C)C(=O)Cn2cc(NC(=O)[C@@H](CNc3ccc(F)nc3C)C(C)C)cn2)cc1 [Compound 171] = 30 to 50%
9) Cc1ccc(OCCN(C)C(=O)Cn2cc(NC(=O)CCNc3ncc(C)cc3C)cn2)cc1 [Compound 195] = < 30%
10) CN(CCOc1ccc(C(F)(F)F)cc1)C(=O)Cn1cc(NC(=O)CCOc2ccccc2F)cn1 [Compound 40] = > 50%
11) Cc1ccc(OCCN(C)C(=O)Cn2cc(NC(=O)CCOc3ccc(C)cc3F)cn2)cc1 [Compound 39] = 30 to 50%
12) Cc1ccc(OC[C@@H](C)N(C)C(=O)Cn2cc(NC(=O)CCNc3ccnc(F)n3)cn2)cc1 [Compound 268] = > 50%
13) Cc1ccc(OCCN(C)C(=O)Cn2cc(NC(=O)CCNc3ccc(O)nc3)cn2)cc1 [Compound 255] = < 30%
14) Cc1ccc(OCCN(C)C(=O)Cn2cc(NC(=O)CCNc3ccc(F)nc3C)cn2)cn1 [Compound 243] = < 30%
15) Cc1ccc(OCCN(C)C(=O)Cn2cc(NC(=O)CCNc3ncccc3C#N)cn2)cc1 [Compound 141] = < 30%
16) CNC(=O)c1cnc(NCCC(=O)Nc2cnn(CC(=O)N(C)CCOc3ccc(C)cc3)c2)nc1 [Compound 211] = < 30%

Where do the numbers come from? From patent US20260193236A1.
